# measured.target: active p38 alpha enzyme (Upstate Biotechnology) (Homo sapiens)
# Construct: purchased Upstate Biotechnology
# Sequence (Q16539 whole entry): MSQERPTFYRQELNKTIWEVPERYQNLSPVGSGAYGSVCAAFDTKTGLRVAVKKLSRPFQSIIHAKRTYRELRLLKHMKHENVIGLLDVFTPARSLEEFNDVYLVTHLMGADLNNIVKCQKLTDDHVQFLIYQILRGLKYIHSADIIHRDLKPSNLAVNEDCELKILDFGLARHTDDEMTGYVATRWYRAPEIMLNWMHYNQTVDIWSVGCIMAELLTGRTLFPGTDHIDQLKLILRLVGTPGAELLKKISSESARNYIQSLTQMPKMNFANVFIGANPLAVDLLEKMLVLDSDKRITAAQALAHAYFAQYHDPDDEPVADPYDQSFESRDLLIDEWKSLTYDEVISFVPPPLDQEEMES
# method.description: p38α biochemical assay (ATP turnover, luminescent detection, Cambrex PKlight)
# measurement.context: p38α kinase; Table 1 Biological Activity
# Protocol: The p38α biochemical assay employed is based on measurement of total ATP turnover following enzyme incubation with substrate in the presence of ATP with the use of a luminescent detection reagent (Cambrex PKlight). […] The final volume was 7.5005 μL as prepared prepared from the addition of 5 ul of kinase reaction (p38 alpah+MapkapK2+ATP) with 0.0005 μL compound dissolved in DMSO, and 2.5 ul of the detection reagent. […] Assay is read using a Perkin Elmer Viewlux.
pIC50: −log10 of the molar value.
attribute.measured: pIC50

1) CC(C)CNCc1nc(-c2ccc(F)cc2)c(-c2nc(C(=O)NC(C)C)cs2)o1 [Example 1062] = < 6.00
2) CC(C)NC(=O)c1csc(-c2oc(CN3CCN(C(=O)OC(C)(C)C)CC3)nc2-c2ccc(F)cc2)n1 [Example 1258] = < 6.00
3) Cc1nc(-c2ccc(F)cc2)c(-c2nc(C(=O)NCCCCO)cs2)s1 [Example 1730] = ≥ 6.00
4) CCC(CO)NCc1onc(-c2ccc(F)cc2)c1-c1nc(C(=O)NC(C)C)cs1 (stereo not shown) [Example 1405] = < 6.00
5) CC(=O)Oc1cccc(C(=O)N2CCC(c3[nH]nc(-c4ccc(F)cc4)c3-c3nc(C(=O)NC(C)C)cs3)CC2)c1 [Example 929] = < 6.00
6) CCCCCc1ccc(C(=O)N2CCC(c3[nH]nc(-c4ccc(F)cc4)c3-c3nc(C(=O)NC(C)C)cs3)CC2)cc1 [Example 971] = < 6.00
7) CC(C)NC(=O)c1csc(-c2c(-c3ccc(F)cc3)noc2CN2CCCN(Cc3ccccc3)CC2)n1 [Example 1576] = < 6.00
8) CC(C)CC(C)NCc1nc(-c2ccc(F)cc2)c(-c2nc(C(=O)NC(C)C)cs2)o1 (stereo not shown) [Example 1080] = < 6.00
9) Cc1nc(-c2ccc(F)cc2)c(-c2nc(C(=O)N3CCC(N(C)C)C3)cs2)s1 (stereo not shown) [Example 1859] = < 6.00
10) Cc1ccc([C@H](C)NCc2nc(-c3ccc(F)cc3)c(-c3nc(C(=O)NC(C)C)cs3)o2)cc1 [Example 1115] = < 6.00
11) CCCN(CCC)Cc1nc(-c2ccc(F)cc2)c(-c2nc(C(=O)NC(C)C)cs2)o1 [Example 1203] = < 6.00
12) CC(C)NC(=O)c1csc(-c2c(-c3ccc(F)cc3)noc2CNCCc2ccc(F)cc2)n1 [Example 1458] = < 6.00
13) Cc1nc(-c2ccc(F)cc2)c(-c2nc(C(=O)NCCc3ccc(Cl)cc3)cs2)s1 [Example 1803] = ≥ 6.00
14) O=C(O)c1csc(-c2c(-c3ccc(F)cc3)n[nH]c2C2CCNCC2)n1 [Example 2030] = < 6.00
15) O=C(NC1CCCC1)c1csc(-c2c(-c3ccc(F)cc3)n[nH]c2C2CCNCC2)n1 [Example 2044] = ≥ 6.00
16) CC(C)NC(=O)c1csc(-c2c(-c3ccc(F)cc3)noc2CN2CCOCC2)n1 [Example 1509] = < 6.00
